In this section, each of the variants is paired with its reported yeast surface expression.
B1: scFv; the commonest letter at each place (parent)
chain 1: EVKLDETGGGLVQPGRPMKLSCVASGFTFSDYWMNWVRQSPEKGLEWVAQIRNKPYNYETYYSDSVKGRFTISRDDSKSSVYLQMNNLRVEDMGIYYCTGSYYGMDYWGQGTSVTVS
chain 2: DVVMTQTPLSLPVSLGDQASISCRSSQSLVHSNGNTYLRWYLQKPGQSPKVLIYKVSNRFSGVPDRFSGSGSGTDFTLKISRVEAEDLGVYFCSQSTHVPWTFGGGTKLEIK

- Variants of: B1
- experimental_details: yeast surface expression (ratio to wild type); higher = more expressed
- condition_parameters: format: scFv 4-4-20, heavy + light
A bare number is all that is needed in reply.

Reference set (5 entries):
[
  {
    "mutation_id": "chain 1 W108Q",
    "yeast surface expression": 0.506
  },
  {
    "mutation_id": "chain 1 S30H Y32C",
    "yeast surface expression": 0.722
  },
  {
    "mutation_id": "chain 1 Y32S N35H",
    "yeast surface expression": 0.89
  },
  {
    "mutation_id": "chain 1 Y102C G104D",
    "yeast surface expression": 0.919
  },
  {
    "mutation_id": "chain 1 V37Y",
    "yeast surface expression": 1.04
  }
]

Query string: Given the variant chain 1 M34C V37H , write its reported yeast surface expression.
Result string: 0.466

Query string: Given the variant chain 1 W108S , write its reported yeast surface expression.
Result string: 0.51

Query string: Given the variant chain 1 G104A D106Q Y107E , write its reported yeast surface expression.
Result string: 0.519

Query string: Given the variant chain 1 M105D D106I , write its reported yeast surface expression.
Result string: 0.844

Query string: Given the variant chain 1 T28V F29D , write its reported yeast surface expression.
Result string: 0.952

Query string: Given the variant chain 1 S30A M34L , write its reported yeast surface expression.
Result string: 1.1

Query string: Given the variant chain 1 G109P , write its reported yeast surface expression.
Result string: 0.312

Query string: Given the variant chain 1 G100S Y102C , write its reported yeast surface expression.
Result string: 0.675

Query string: Given the variant chain 1 S30E , write its reported yeast surface expression.
Result string: 0.948

# credit: the FLAb antibody collection (doi:10.7554/elife.23156)
